Would you mind telling me the reported Stability (T5hr/ T1hr), Run-specific Avg of each entry?
Test system: human plasma
Test: Chemical stability in plasma over the UC assay time course (T5hr/T1hr)
Conditions: average of one UC run
A bare number is all that is needed in reply.

Give recorded Stability (T5hr/ T1hr), Run-specific Avg with human plasma for the following compound: OCC(F)(F)C(F)(F)C(F)(F)C(F)(F)C(F)(F)C(F)(F)C(F)(F)C(F)(F)C(F)(F)C(F)(F)C(F)(F)F
0.842

Give recorded Stability (T5hr/ T1hr), Run-specific Avg with human plasma for the following compound: NCC(F)(F)C(F)(F)C(F)(F)C(F)(F)C(F)(F)C(F)(F)C(F)(F)F
0.588

Give recorded Stability (T5hr/ T1hr), Run-specific Avg with human plasma for the following compound: OCCC(F)(F)C(F)(F)C(F)(F)C(F)(F)F
0.730

Give recorded Stability (T5hr/ T1hr), Run-specific Avg with human plasma for the following compound: FC(F)(I)C(F)(F)C(F)(F)C(F)(F)C(F)(F)C(F)(F)I
0.719

Give recorded Stability (T5hr/ T1hr), Run-specific Avg with human plasma for the following compound: OCC(F)(F)C(F)(F)C(F)(F)C(F)(F)C(F)(F)C(F)(F)F
0.822

Give recorded Stability (T5hr/ T1hr), Run-specific Avg with human plasma for the following compound: FC(F)(F)C(F)(F)C(F)(F)C(F)(F)CCI [1H,1H,2H,2H-Perfluorohexyl iodide]
0.506

Give recorded Stability (T5hr/ T1hr), Run-specific Avg with human plasma for the following compound: FC(F)(I)C(F)(F)C(F)(F)C(F)(F)I
0.724

Give recorded Stability (T5hr/ T1hr), Run-specific Avg with human plasma for the following compound: OCCC(F)(F)C(F)(F)C(F)(F)C(F)(F)C(F)(F)C(F)(F)C(F)(F)C(F)(F)F
0.813

Give recorded Stability (T5hr/ T1hr), Run-specific Avg with human plasma for the following compound: FC(F)(Br)C(F)(F)C(F)(F)C(F)(F)C(F)(F)C(F)(F)Br
0.392

Give recorded Stability (T5hr/ T1hr), Run-specific Avg with human plasma for the following compound: NCC(F)(F)C(F)(F)C(F)(F)C(F)(F)C(F)(F)C(F)(F)F
0.545

Give recorded Stability (T5hr/ T1hr), Run-specific Avg with human plasma for the following compound: C=C(C)C(=O)OCC(F)(F)C(F)(F)C(F)(F)C(F)F [1H,1H,5H-Perfluoropentyl methacrylate]
0.050

Give recorded Stability (T5hr/ T1hr), Run-specific Avg with human plasma for the following compound: OCCC(F)(F)C(F)(F)C(F)(F)C(F)(F)C(F)(F)C(F)(F)F
0.893

Give recorded Stability (T5hr/ T1hr), Run-specific Avg with human plasma for the following compound: NCC(F)(F)C(F)(F)C(F)(F)C(F)(F)C(F)(F)C(F)(F)C(F)(F)C(F)(F)F
0.608

Give recorded Stability (T5hr/ T1hr), Run-specific Avg with human plasma for the following compound: OCCCCC(F)(F)C(F)(F)C(F)(F)C(F)(F)F
0.839

Give recorded Stability (T5hr/ T1hr), Run-specific Avg with human plasma for the following compound: NC(=O)C(F)(F)C(F)(F)C(F)(F)F [Heptafluorobutyramide]
0.945

Give recorded Stability (T5hr/ T1hr), Run-specific Avg with human plasma for the following compound: FC(F)(F)C(F)(F)CNCC(F)(F)C(F)(F)F
0.850

Give recorded Stability (T5hr/ T1hr), Run-specific Avg with human plasma for the following compound: OCC(F)(F)C(F)(F)C(F)(F)CO
0.632

Give recorded Stability (T5hr/ T1hr), Run-specific Avg with human plasma for the following compound: OCC(F)(F)C(F)(F)C(F)(F)C(F)(F)C(F)(F)C(F)(F)C(F)(F)C(F)(F)CO [1H,1H,10H,10H-Perfluorodecane-1,10-diol]
0.615

###

Assay: in vitro
Conditions: both, human, plasma, Fraction Unbound (fu), Run-specific Avg, run-specific average
assay_metric: fraction unbound

Report fraction unbound for NC(=O)C(F)(F)C(F)(F)C(F)(F)C(F)(F)C(N)=O [Octafluoroadipamide] please.
0.67

Report fraction unbound for NC(=O)C(F)(F)C(F)(F)C(F)(F)C(F)(F)F [Nonafluoropentanamide] please.
0.2

###

Experiment: Hepatic metabolic stability (hepatocyte clearance) assay, substrate depletion
Format: in vitro ADME, human
Details: both sexes, human, hepatocytes, Bkgd_adj_Clint
assay_metric: hepatocyte CLint at 1 μM (µL/min/1e6 cells)
Express your answer in µL/min/1e6 cells, writing the number without its unit.

Report hepatocyte CLint at 1 μM for OCC(F)(F)OC(F)(F)C(F)(F)OC(F)(F)CO please.
6.72

###

Would you mind telling me the reported PPB_Stab_Fail of each entry?
Test system: human plasma
Experiment: Chemical stability in plasma over the UC assay time course (T5hr/T1hr)
Conditions: flag for stability failure in the plasma protein binding assay (1 = fail, 0 = pass)
A bare number is all that is needed in reply.

Report PPB_Stab_Fail for O=C(CC(=O)C(F)(F)C(F)(F)C(F)(F)F)c1cccs1 please.
0

Report PPB_Stab_Fail for N=C(N)C(F)(F)C(F)(F)C(F)(F)C(F)(F)C(F)(F)C(F)(F)C(F)(F)F please.
0

Report PPB_Stab_Fail for NC(=O)C(F)(F)C(F)(F)C(F)(F)C(F)(F)F [Nonafluoropentanamide] please.
0

Report PPB_Stab_Fail for C=CC(=O)OCC(F)(F)C(F)(F)C(F)(F)C(F)(F)C(F)(F)C(F)(F)C(F)(F)F [1H,1H-Perfluorooctyl acrylate] please.
1

Report PPB_Stab_Fail for FC(F)(F)C(F)(F)C(F)(F)C(F)(F)C(F)(F)C(F)(F)C(F)(F)I please.
1

Report PPB_Stab_Fail for CN(C(=O)C(F)(F)C(F)(F)C(F)(F)F)[Si](C)(C)C please.
0

Report PPB_Stab_Fail for C=CC(=O)OCC(F)(F)C(F)(F)C(F)(F)C(F)(F)COC(=O)C=C please.
1

Report PPB_Stab_Fail for NCC(F)(F)C(F)(F)C(F)(F)C(F)(F)C(F)(F)C(F)(F)C(F)(F)C(F)(F)F please.
0

Report PPB_Stab_Fail for FC(F)(I)C(F)(F)C(F)(F)C(F)(F)C(F)(F)C(F)(F)I please.
0

Report PPB_Stab_Fail for FC(F)(Br)C(F)(F)C(F)(F)C(F)(F)C(F)(F)C(F)(F)Br please.
0

Report PPB_Stab_Fail for OCCC(F)(F)C(F)(F)C(F)(F)C(F)(F)C(F)(F)C(F)(F)C(F)(F)C(F)(F)F please.
0

Report PPB_Stab_Fail for FC(F)(F)C(F)(F)C(F)(F)C(F)(F)C(F)(F)C(F)(F)C(F)(F)CCI please.
0

Report PPB_Stab_Fail for OCCCC(F)(F)C(F)(F)C(F)(F)C(F)(F)C(F)(F)C(F)(F)C(F)(F)F please.
0

Report PPB_Stab_Fail for C=C(C)C(=O)OCCC(F)(F)C(F)(F)C(F)(F)C(F)(F)C(F)(F)C(F)(F)F [6:2 Fluorotelomer methacrylate] please.
0

Report PPB_Stab_Fail for CO[Si](C)(CCC(F)(F)C(F)(F)C(F)(F)C(F)(F)C(F)(F)C(F)(F)F)OC please.
1

Report PPB_Stab_Fail for FC(F)(F)C(F)(F)C(F)(F)C(F)(F)C(F)(F)C(F)(F)CCS please.
1

Report PPB_Stab_Fail for OCC(F)(F)C(F)(F)C(F)(F)C(F)F please.
0

Report PPB_Stab_Fail for OCCCC(F)(F)C(F)(F)C(F)(F)C(F)(F)C(F)(F)C(F)(F)C(F)(F)C(F)(F)F please.
0

Report PPB_Stab_Fail for FC(F)(I)C(F)(F)C(F)(F)C(F)(F)I please.
0

Report PPB_Stab_Fail for NC(=O)C(F)(F)C(F)(F)C(F)(F)C(F)(F)C(F)(F)C(F)(F)C(F)(F)F [Perfluorooctanamide] please.
0

Report PPB_Stab_Fail for OCC(F)(F)C(F)(F)C(F)(F)C(F)(F)C(F)(F)C(F)(F)F please.
0

Report PPB_Stab_Fail for FC(F)(F)C(F)(F)C(F)(F)C(F)(F)CCI [1H,1H,2H,2H-Perfluorohexyl iodide] please.
0

Report PPB_Stab_Fail for C=CC(=O)OCC(F)(F)C(F)(F)C(F)(F)COC(=O)C=C please.
1

Report PPB_Stab_Fail for NCC(F)(F)C(F)(F)C(F)(F)C(F)(F)C(F)(F)C(F)(F)C(F)(F)F please.
0

Report PPB_Stab_Fail for NC(=O)C(F)(F)C(F)(F)C(F)(F)C(F)(F)C(N)=O [Octafluoroadipamide] please.
0

Report PPB_Stab_Fail for OCC(F)(F)C(F)(F)C(F)(F)C(F)(F)C(F)(F)C(F)F please.
0

Report PPB_Stab_Fail for NC(=O)C(F)(F)C(F)(F)C(F)(F)F [Heptafluorobutyramide] please.
0

Report PPB_Stab_Fail for OCC(F)(F)C(F)(F)C(F)(F)C(F)(F)C(F)(F)C(F)(F)C(F)(F)C(F)(F)CO [1H,1H,10H,10H-Perfluorodecane-1,10-diol] please.
0

Report PPB_Stab_Fail for OCC(F)(F)C(F)(F)C(F)(F)CO please.
0

Report PPB_Stab_Fail for NC(O)(C(F)(F)F)C(F)(F)F please.
0

Report PPB_Stab_Fail for OCC(F)(F)C(F)(F)C(F)(F)C(F)(F)C(F)(F)C(F)(F)C(F)(F)C(F)(F)C(F)(F)C(F)(F)C(F)(F)F please.
0
